Experiment: Example 3: effect of ketoconazole 200 mg twice daily on PK of mifepristone 600 mg once daily and metabolites, with food
Type: in vivo, human
Conditions: Test: Day 17, 600 mg mifepristone OD + 200 mg Ketoconazole BID; Reference: Day 12, 600 mg mifepristone OD; geometric mean ratio
Exercise: state measured Ratio % Test/Reference, Cmax for each of the compounds provided.
Hi! Could you send only the number? It should be in %, unit omitted.

Could you share which Ratio % Test/Reference, Cmax value was measured for CN(C)c1ccc([C@H]2C[C@@]3(C)[C@@H](CC[C@@]3(O)C#CCO)[C@@H]3CCC4=CC(=O)CCC4=C32)cc1 [RU 42698] ?
169.13

One more compound: CC#C[C@]1(O)CC[C@H]2[C@@H]3CCC4=CC(=O)CCC4=C3[C@@H](c3ccc(N(C)C)cc3)C[C@@]21C [Mifepristone]
127.59

One more compound: CC#C[C@]1(O)CC[C@H]2[C@@H]3CCC4=CC(=O)CCC4=C3[C@@H](c3ccc(N)cc3)C[C@@]21C [RU 42848]
95.48

One more compound: CC#C[C@]1(O)CC[C@H]2[C@@H]3CCC4=CC(=O)CCC4=C3[C@@H](c3ccc(NC)cc3)C[C@@]21C [RU 42633]
105.73

---

Assay: Example 3: effect of ketoconazole 200 mg twice daily on PK of mifepristone 600 mg once daily and metabolites, with food
Type: in vivo, human
Conditions: Test: Day 17, 600 mg mifepristone OD + 200 mg Ketoconazole BID; Reference: Day 12, 600 mg mifepristone OD; geometric mean ratio
Exercise: state measured Ratio % Test/Reference, AUC0-24 for each of the molecules provided.
Hi! Could you send only the number? It should be in %, unit omitted.

Could you share which Ratio % Test/Reference, AUC0-24 value was measured for CC#C[C@]1(O)CC[C@H]2[C@@H]3CCC4=CC(=O)CCC4=C3[C@@H](c3ccc(N(C)C)cc3)C[C@@]21C ?
138.01

One more molecule: CN(C)c1ccc([C@H]2C[C@@]3(C)[C@@H](CC[C@@]3(O)C#CCO)[C@@H]3CCC4=CC(=O)CCC4=C32)cc1
166.86

One more molecule: CC#C[C@]1(O)CC[C@H]2[C@@H]3CCC4=CC(=O)CCC4=C3[C@@H](c3ccc(N)cc3)C[C@@]21C
94.88

One more molecule: CC#C[C@]1(O)CC[C@H]2[C@@H]3CCC4=CC(=O)CCC4=C3[C@@H](c3ccc(NC)cc3)C[C@@]21C
102.33

---

Test: Example 3: cross-study comparison of exposure with historic study of 1200 mg mifepristone OD
Assay type: in vivo, human
Conditions: Test: Day 17, 600 mg mifepristone OD + 200 mg Ketoconazole BID; Reference: historic study Day 7, 1200 mg mifepristone OD alone; after 34% fat meal
observation-type: Ratio % Test/Ref, Cmax (%)
Hi! Could you send only the number? It should be in %, unit omitted.

Could you share which Ratio % Test/Ref, Cmax value was measured for CC#C[C@]1(O)CC[C@H]2[C@@H]3CCC4=CC(=O)CCC4=C3[C@@H](c3ccc(N)cc3)C[C@@]21C [RU 42848] ?
82.45

One more compound: CC#C[C@]1(O)CC[C@H]2[C@@H]3CCC4=CC(=O)CCC4=C3[C@@H](c3ccc(NC)cc3)C[C@@]21C [RU 42633]
96.31

One more compound: CC#C[C@]1(O)CC[C@H]2[C@@H]3CCC4=CC(=O)CCC4=C3[C@@H](c3ccc(N(C)C)cc3)C[C@@]21C [Mifepristone]
84.64

One more compound: CN(C)c1ccc([C@H]2C[C@@]3(C)[C@@H](CC[C@@]3(O)C#CCO)[C@@H]3CCC4=CC(=O)CCC4=C32)cc1 [RU 42698]
116.55

---

Exercise: state measured AUC(0-t) for each of the molecules provided.
Assay: clinical
Conditions: male, human, in vivo, 900 mg
Hi! Could you send only the number? It should be in ng·h/mL, unit omitted.

Could you share which AUC(0-t) value was measured for CN(C)c1ccc([C@H]2C[C@@]3(C)[C@@H](CC[C@@]3(O)C#CCO)[C@@H]3CCC4=CC(=O)CCC4=C32)cc1 ?
15100

One more molecule: CC#C[C@]1(O)CC[C@H]2[C@@H]3CCC4=CC(=O)CCC4=C3[C@@H](c3ccc(N(C)C)cc3)C[C@@]21C
59600

One more molecule: CC#C[C@]1(O)CC[C@H]2[C@@H]3CCC4=CC(=O)CCC4=C3[C@@H](c3ccc(N)cc3)C[C@@]21C
33900

One more molecule: CC#C[C@]1(O)CC[C@H]2[C@@H]3CCC4=CC(=O)CCC4=C3[C@@H](c3ccc(NC)cc3)C[C@@]21C
40300

---

Experiment: clinical
Details: male, human, in vivo, 1200 mg
observation-type: Cmax
Don't forget the unit after the number, please.

Could you share which Cmax value was measured for CC#C[C@]1(O)CC[C@H]2[C@@H]3CCC4=CC(=O)CCC4=C3[C@@H](c3ccc(NC)cc3)C[C@@]21C ?
2160 ng/mL

One more compound: CC#C[C@]1(O)CC[C@H]2[C@@H]3CCC4=CC(=O)CCC4=C3[C@@H](c3ccc(N)cc3)C[C@@]21C
1770 ng/mL

One more compound: CC#C[C@]1(O)CC[C@H]2[C@@H]3CCC4=CC(=O)CCC4=C3[C@@H](c3ccc(N(C)C)cc3)C[C@@]21C
4360 ng/mL

One more compound: CN(C)c1ccc([C@H]2C[C@@]3(C)[C@@H](CC[C@@]3(O)C#CCO)[C@@H]3CCC4=CC(=O)CCC4=C32)cc1
853 ng/mL

---

Exercise: state measured Ratio % Test/Ref, AUC0-24 for each of the compounds provided.
Experiment: Example 3: cross-study comparison of exposure with historic study of 1200 mg mifepristone OD
Type: in vivo, human
Conditions: Test: Day 17, 600 mg mifepristone OD + 200 mg Ketoconazole BID; Reference: historic study Day 7, 1200 mg mifepristone OD alone; after 34% fat meal
Hi! Could you send only the number? It should be in %, unit omitted.

Could you share which Ratio % Test/Ref, AUC0-24 value was measured for CC#C[C@]1(O)CC[C@H]2[C@@H]3CCC4=CC(=O)CCC4=C3[C@@H](c3ccc(N(C)C)cc3)C[C@@]21C ?
87.27

One more compound: CC#C[C@]1(O)CC[C@H]2[C@@H]3CCC4=CC(=O)CCC4=C3[C@@H](c3ccc(NC)cc3)C[C@@]21C
91.34

One more compound: CC#C[C@]1(O)CC[C@H]2[C@@H]3CCC4=CC(=O)CCC4=C3[C@@H](c3ccc(N)cc3)C[C@@]21C
81.43

One more compound: CN(C)c1ccc([C@H]2C[C@@]3(C)[C@@H](CC[C@@]3(O)C#CCO)[C@@H]3CCC4=CC(=O)CCC4=C32)cc1
118.18

---

Test: Example 3: effect of ketoconazole 200 mg twice daily on PK of mifepristone 600 mg once daily and metabolites, with food
Type: in vivo, human
Settings: 600 mg mifepristone daily with 200 mg ketoconazole twice daily vs mifepristone alone
observation-type: concentrations on Day 17 compared with Day 12

input-smiles	recorded-result
CC#C[C@]1(O)CC[C@H]2[C@@H]3CCC4=CC(=O)CCC4=C3[C@@H](c3ccc(N(C)C)cc3)C[C@@]21C	higher
CC#C[C@]1(O)CC[C@H]2[C@@H]3CCC4=CC(=O)CCC4=C3[C@@H](c3ccc(NC)cc3)C[C@@]21C	similar
CN(C)c1ccc([C@H]2C[C@@]3(C)[C@@H](CC[C@@]3(O)C#CCO)[C@@H]3CCC4=CC(=O)CCC4=C32)cc1	higher
CC#C[C@]1(O)CC[C@H]2[C@@H]3CCC4=CC(=O)CCC4=C3[C@@H](c3ccc(N)cc3)C[C@@]21C	similar

---

Exercise: state measured Cmax for each of the compounds provided.
Assay: clinical
Settings: male, human, in vivo, 900 mg
Description: This study was conducted in accordance with Good Clinical Practice under the guidance of an Institutional Review Board and in accordance with applicable local legal and regulatory requirements. […] Pharmacokinetic (PK) parameters measured and computed included AUC (area under the concentration−time curve), AUC0-24 (AUC values from time 0 to 24 hours postdose), Cmax (maximum concentration), and Css (average steady-state concentration, calculated as AUC0-24/24).
Hi! Could you send only the number? It should be in ng/mL, unit omitted.

Could you share which Cmax value was measured for CN(C)c1ccc([C@H]2C[C@@]3(C)[C@@H](CC[C@@]3(O)C#CCO)[C@@H]3CCC4=CC(=O)CCC4=C32)cc1 [RU 42698] ?
755

One more compound: CC#C[C@]1(O)CC[C@H]2[C@@H]3CCC4=CC(=O)CCC4=C3[C@@H](c3ccc(N)cc3)C[C@@]21C [RU 42848]
1630

One more compound: CC#C[C@]1(O)CC[C@H]2[C@@H]3CCC4=CC(=O)CCC4=C3[C@@H](c3ccc(NC)cc3)C[C@@]21C [RU 42633]
1970
